Just for reference, ChEMBL document CHEMBL2046268 is where these values come from.

List of pIC50 values.
Tested on: MCF7
Assay: Cytotoxicity against human MCF7 cells assessed as cell viability after 72 hrs by MTT assay
Format: functional, cell-based
Settings: MCF7, 72 h
pIC50: −log10 of the molar value.

# Smiles string, Sign, pIC50
measured = [
    ("CC1=C(CO)C(=O)O[C@@H]([C@@H](C)[C@H]2CC[C@H]3[C@@H]4C[C@@H](O)[C@]5(C=O)CCC(=O)[C@]5(C)[C@H]4CC[C@]23C)C1", "<", 4.40),
    ("CC1=C(CO)C(=O)O[C@@H]([C@@H](C)C2=CC[C@H]3[C@@H]4C[C@H]5O[C@]56[C@@H](O)C=CC(=O)[C@]6(C)[C@H]4CC[C@]23C)C1", "=", 6.52),
    ("CC1=C(CO)C(=O)O[C@@H]([C@@H](C)[C@H]2CC[C@H]3[C@@H]4C[C@H](Cl)[C@]5(O)[C@@H](O)C=CC(=O)[C@]5(C)[C@H]4CC[C@]23C)C1", "=", 5.89),
    ("CC1=C(CO[Si](C)(C)C(C)(C)C)C(=O)O[C@@H]([C@@H](C)[C@H]2CC[C@H]3[C@@H]4C[C@H]5O[C@]56C(=O)C=CC(=O)[C@]6(C)[C@H]4CC[C@]23C)C1", "=", 6.70),
    ("CC1=C(CO[Si](C)(C)C(C)(C)C)C(=O)O[C@@H]([C@@H](C)[C@H]2CC[C@H]3[C@@H]4C[C@H]5O[C@]56[C@@H](O)C=CC(=O)[C@]6(C)[C@H]4CC[C@]23C)C1", "=", 6.15),
]

====

System: A549
Experiment: Cytotoxicity against human A549 cells assessed as cell viability after 48 hrs by MTT assay
Format: functional, cell-based
Conditions: A549, 48 h
pIC50: −log10 of the molar value. *1 amine or outer side, *2 acyl side, *3 side chain or, on linkers, in order; H or OH if unused. Where a SMILES comes first, the peptide text is derived from it. Bridges are numbered along the chain shown (N, C = ends). Roman numbers before positions name the chains, in order. [ ]: non-standard residue; d: D form. Actinocin(1to9) = Cc1c2oc3c(C)ccc(C(=O)[*:2])c3nc-2c(C(=O)[*:1])c(N)c1=O; NMeV = CN[C@H](C(=O)O)C(C)C; Sar = CNCC(=O)O
Each entry gets False if its pIC50 stays under 5, and True if its pIC50 is 5 or above.

# Compound, Target or test system, Answer label
data = [
    ("CC1=C(CO)C(=O)O[C@@H](/C(C)=C2\\[C@@H](O)C[C@H]3[C@@H]4C[C@H]5O[C@]56[C@@H](O)C=CC(=O)[C@]6(C)[C@H]4CC[C@]23C)C1", "A549", "False"),
    ("CC1=C(CO)C(=O)O[C@@H]([C@@H](C)[C@H]2CC[C@H]3[C@@H]4C[C@H]5O[C@]56[C@@H](O)C=CC(=O)[C@]6(C)[C@H]4CC[C@]23C)C1 [WITHAFERIN A]", "A549", "True"),
    ("CC1=C(CO)C(=O)O[C@@H]([C@@H](C)[C@H]2CC[C@H]3[C@@H]4C[C@H]5O[C@]56[C@@H](O)CCC(=O)[C@]6(C)[C@H]4CC[C@]23C)C1", "A549", "False"),
    ("CC1=C(CO)C(=O)O[C@@H]([C@@H](C)[C@H]2CC[C@H]3[C@@H]4C[C@H](O)[C@]5(O)[C@@H](O)C=CC(=O)[C@]5(C)[C@H]4CC[C@]23C)C1", "A549", "False"),
    ("CC(=O)OCC1=C(C)C[C@H]([C@@H](C)[C@H]2CC[C@H]3[C@@H]4C[C@H]5O[C@]56[C@@H](O)C=CC(=O)[C@]6(C)[C@H]4CC[C@]23C)OC1=O", "A549", "True"),
    ("CC1=C(CO[Si](C)(C)C(C)(C)C)C(=O)O[C@@H]([C@@H](C)[C@H]2CC[C@H]3[C@@H]4C[C@H]5O[C@]56[C@@H](O)C=CC(=O)[C@]6(C)[C@H]4CC[C@]23C)C1", "A549", "True"),
    ("CC1=C(COC(C)(C)OC=O)C(=O)O[C@@H]([C@@H](C)[C@H]2CC[C@H]3[C@@H]4C[C@H]5O[C@]56[C@@H](O)C=CC(=O)[C@]6(C)[C@H]4CC[C@]23C)C1", "A549", "False"),
    ("CC1=C(C)C(=O)O[C@@H]([C@@H](C)C2=CC[C@H]3[C@@H]4C[C@H]5O[C@]56[C@@H](O)C=CC(=O)[C@]6(C)[C@H]4CC[C@]23C)C1", "A549", "False"),
    ("CC1=C(CO)C(=O)O[C@@H]([C@@H](C)C2=CC[C@H]3[C@@H]4C[C@H]5O[C@]56[C@@H](O)C=CC(=O)[C@]6(C)[C@H]4CC[C@]23C)C1 [WITHARISTATIN]", "A549", "True"),
    ("Cc1c2oc3c(C)ccc(C(=O)N[C@@H]4C(=O)N[C@H](C(C)C)C(=O)N5CCC[C@H]5C(=O)N(C)CC(=O)N(C)[C@@H](C(C)C)C(=O)O[C@@H]4C)c3nc-2c(C(=O)N[C@@H]2C(=O)N[C@H](C(C)C)C(=O)N3CCC[C@H]3C(=O)N(C)CC(=O)N(C)[C@@H](C(C)C)C(=O)O[C@@H]2C)c(N)c1=O [DACTINOMYCIN] (I: T[dV]P[Sar][NMeV] / II: T[dV]P[Sar][NMeV]; ester I:1-I:C, II:1-II:C; linker I:N-II:N via Actinocin(1to9))", "A549", "True"),
    ("CC1=C(CO)C(=O)O[C@@H]([C@@H](C)[C@H]2CC[C@H]3[C@@H]4C[C@H]5O[C@]56C(=O)C=CC(=O)[C@]6(C)[C@H]4CC[C@]23C)C1", "A549", "False"),
    ("CC1=C(CO)C(=O)O[C@@H]([C@@H](C)[C@H]2CC[C@H]3[C@@H]4C[C@@H](O)[C@]5(C=O)CCC(=O)[C@]5(C)[C@H]4CC[C@]23C)C1", "A549", "False"),
    ("CC1=C(CO)C(=O)O[C@@H]([C@@H](C)[C@@]2(O)CC[C@H]3[C@@H]4C[C@H]5O[C@]56[C@@H](O)C=CC(=O)[C@]6(C)[C@H]4CC[C@@]32C)C1", "A549", "False"),
    ("CC1=C(CO)C(=O)O[C@@H]([C@@H](C)[C@H]2CC[C@H]3[C@@H]4C[C@@H](O)[C@]5(C=O)C=CC(=O)[C@]5(C)[C@H]4CC[C@]23C)C1", "A549", "False"),
    ("CC(=O)OCC1=C(C)C[C@H]([C@@H](C)[C@H]2CC[C@H]3[C@@H]4C[C@H]5O[C@]56[C@@H](O)[C@@H](O)CC(=O)[C@]6(C)[C@H]4CC[C@]23C)OC1=O", "A549", "False"),
]

====

Target: Caspase-3 (Homo sapiens)
Sequence (whole entry): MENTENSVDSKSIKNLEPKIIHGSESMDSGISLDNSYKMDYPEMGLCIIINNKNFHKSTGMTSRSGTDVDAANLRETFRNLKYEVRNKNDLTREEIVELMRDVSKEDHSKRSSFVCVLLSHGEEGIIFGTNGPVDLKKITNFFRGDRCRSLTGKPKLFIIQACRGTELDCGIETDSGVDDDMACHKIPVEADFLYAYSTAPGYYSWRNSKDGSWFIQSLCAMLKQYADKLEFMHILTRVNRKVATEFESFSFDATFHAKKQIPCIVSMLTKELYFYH
Assay: Induction of caspase 3 activation in human HeLa cells using Ac-DEVD-pNA at 4 uM after 4 hrs by Bradford assay
Assay type: cell-based
The source made the active and inactive calls. The calls are words filed in the database; no cut-off is given here.

# Smiles string, Activity
measured = [
    ("CC1=C(C)C(=O)O[C@@H]([C@@H](C)[C@H]2CC[C@H]3[C@@H]4C[C@H]5O[C@]56[C@@H](O)C=CC(=O)[C@]6(C)[C@H]4CC[C@]23C)C1", "inactive"),
    ("CC1=C(C)C(=O)O[C@@H]([C@@H](C)[C@H]2CC=C3[C@@H]4C[C@H]5O[C@]56[C@@H](O)C=CC(=O)[C@]6(C)[C@H]4CC[C@@]32C)C1", "inactive"),
    ("CC1=C(CO[Si](C)(C)C(C)(C)C)C(=O)O[C@@H]([C@@H](C)[C@H]2CC[C@H]3[C@@H]4C[C@H]5O[C@]56[C@@H](O)C=CC(=O)[C@]6(C)[C@H]4CC[C@]23C)C1", "inactive"),
    ("CC1=C(CO)C(=O)O[C@@H]([C@@H](C)C2=CC[C@H]3[C@@H]4C[C@H]5O[C@]56[C@@H](O)C=CC(=O)[C@]6(C)[C@H]4CC[C@]23C)C1", "inactive"),
    ("CC1=C(CO)C(=O)O[C@@H]([C@@H](C)[C@H]2CC[C@H]3[C@@H]4C[C@H]5O[C@]56[C@@H](O)C=CC(=O)[C@]6(C)[C@H]4CC[C@]23C)C1", "inactive"),
    ("CC1=C(CO[Si](C)(C)C(C)(C)C)C(=O)O[C@@H]([C@@H](C)[C@H]2CC[C@H]3[C@@H]4C[C@H]5O[C@]56C(=O)C=CC(=O)[C@]6(C)[C@H]4CC[C@]23C)C1", "inactive"),
]
